B1: Histone H1t, residues 44 to 112; numbered along this chain, P22492 (parent)
chain: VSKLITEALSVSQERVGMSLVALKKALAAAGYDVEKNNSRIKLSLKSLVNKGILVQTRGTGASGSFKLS

Variants of: B1
assay_comment: abundance fitness (aPCA) (normalised: wild type 0, dead -1); higher = more abundant; growth selection in yeast, the domain comes from the species named
setup_conditions: Homo sapiens
parameter: abundance fitness
Enter the number alone.

Study these solved cases before continuing.
{"mut": "L20Y", "parameter": "abundance fitness", "reported_value": 0.01}
{"mut": "K36C", "parameter": "abundance fitness", "reported_value": -0.556}
{"mut": "A30D", "parameter": "abundance fitness", "reported_value": -0.328}
{"mut": "G31C", "parameter": "abundance fitness", "reported_value": -0.27}
{"mut": "S44H", "parameter": "abundance fitness", "reported_value": -0.126}

abundance fitness measured on E35Q = -0.084

abundance fitness measured on L45C = -0.425

abundance fitness measured on F66I = -0.246
